# assayInfo: NCI Yeast Anticancer Drug Screen. Data for the mec2-1 strain (AID 157)
# reportedConditions: S. cerevisiae mec2-1 strain, at 50.0 µM (retest, dose inferred, filed as 5.0)
This is part of a sample that, as a whole, favours compounds with a hit. Of some 79,000 tested, about 15% had one in any assay. Active and inactive are the calls of the source. Rule as the data show it: active = growth inhibition above about 70%; inactive = the rest.
Classes used: True (active), False (inactive)

{"molecule": "O=C(CCN(Cc1ccccc1)Cc1ccccc1)c1ccc2ccccc2c1", "categoryLabel": "False"}
{"molecule": "COc1ccc2c(c1)C(=O)C(Br)CC2 (configuration not stated)", "categoryLabel": "True"}
{"molecule": "CC(NNC(=S)N1CC2CCC(CC2)C1)c1cc2ccccc2cn1 (configuration not stated)", "categoryLabel": "True"}
{"molecule": "CCC[CH2][Sn]([CH2]CCC)([O]C(=O)c1c(F)cccc1F)[O]C(=O)c1c(F)cccc1F", "categoryLabel": "False"}
{"molecule": "Cc1ccc(N)c(Cc2c(O)ccc3ccccc23)c1", "categoryLabel": "True"}
{"molecule": "Clc1ccccc1CN1COc2c(ccc3cccnc23)C1", "categoryLabel": "False"}
{"molecule": "c1ccc2c(c1)Nc1cc3ccccc3cc1N2", "categoryLabel": "False"}
{"molecule": "S=c1nc(N2CCCCC2)ss1", "categoryLabel": "True"}
{"molecule": "O=Nc1c(O)ccc2ccccc12.[Fe].[Na+]", "categoryLabel": "True"}
{"molecule": "CCOC(=O)c1c(-c2ccccc2)csc1NC(=O)CBr", "categoryLabel": "True"}
{"molecule": "O=C(/C=C\\c1cc(Br)ccc1O)/C=C/c1cc(Br)ccc1O", "categoryLabel": "True"}
{"molecule": "O=C(CC(=O)c1ccccc1)CC1(O)CCCCC1", "categoryLabel": "False"}
{"molecule": "CCCCCCCCCCCCCCCCC1CCc2ccccc21 (configuration not stated)", "categoryLabel": "False"}
{"molecule": "Nc1ccc(Sc2c3ccccc3nc3ccccc23)cc1", "categoryLabel": "False"}
{"molecule": "Cc1ccc(O)c(C(c2cccc(C(c3cc(C)ccc3O)c3cc(C)ccc3O)c2)c2cc(C)ccc2O)c1", "categoryLabel": "True"}
{"molecule": "CC1=C(C(=O)Nc2ccccc2)C(c2ccccc2F)C(C(=O)Nc2ccccc2)=C(C)N1", "categoryLabel": "False"}
{"molecule": "O=C1c2ccc3ccccc3c2CN2C(=O)CCC12 (configuration not stated)", "categoryLabel": "False"}
{"molecule": "NC(=O)/C(=N\\NC(=O)c1cc2ccccc2cc1O)C1C(=O)N(c2ccccc2)N=C1N (configuration not stated)", "categoryLabel": "False"}
{"molecule": "CCN(CC)CCNc1c(C)ccc2cccnc12", "categoryLabel": "False"}
{"molecule": "CC(C)CNc1cc(Cl)nc(N)n1", "categoryLabel": "False"}
{"molecule": "CC(=O)c1csc2c1C(=O)c1scc(C(C)=O)c1C2=O", "categoryLabel": "False"}
{"molecule": "COC/C(Br)=C\\SC#N (tested in a mixture with another compound)", "categoryLabel": "False"}

----------
# assayInfo: NCI Yeast Anticancer Drug Screen. Data for the rad50 strain (AID 155);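 also: 0% = growth of vehicle-only cultures of the same strain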
# reportedConditions: S. cerevisiae rad50 strain growth inhibition; at 50.0 µM (retest, dose inferred, filed as 5.0); hits give high values
Compounds without any hit were thinned out: in the full panel of roughly 79,000, 15% have a hit.
Each record here notes measured growth inhibition.
measure: growth inhibition (%)

{"compound": "O=C(O)CCSCc1cc(C(=O)Nc2ccc(/C=C/c3ccc(NC(=O)c4cc(CSCCC(=O)O)c5cccnc5c4O)cc3S(=O)(=O)O)c(S(=O)(=O)O)c2)c(O)c2ncccc12", "measure": "growth inhibition", "unitString": "%", "reportedMeasurement": 53}
{"compound": "Oc1ccc2ccc3ccccc3c2c1", "measure": "growth inhibition", "unitString": "%", "reportedMeasurement": 99}
{"compound": "COc1ccc(C2C3=C(CCCC3=O)Oc3cc4c(cc32)OCO4)cc1 (centres undefined)", "measure": "growth inhibition", "unitString": "%", "reportedMeasurement": 68}
{"compound": "CCOC(=O)NC(c1ccc(C(NC(=O)OCC)P(=O)(O)NC23CC4CC(CC(C4)C2)C3)cc1)P(=O)(O)NC12CC3CC(CC(C3)C1)C2 (centres undefined)", "measure": "growth inhibition", "unitString": "%", "reportedMeasurement": -6}

----------
# assayInfo: NCI Yeast Anticancer Drug Screen. Data for the bub3 strain (AID 167)
# reportedConditions: S. cerevisiae bub3 mutant strain, at 50.0 µM (retest, dose inferred, filed as 5.0), hits give high values
This is part of a sample that, as a whole, favours compounds with a hit. Of some 79,000 tested, about 15% had one in any assay.
measure: growth inhibition (%)

{"molecule": "C=Cc1ccc(B2NCCO2)cc1", "unitString": "%", "reportedMeasurement": 59}
{"molecule": "O=C(C=P(c1ccccc1)(c1ccccc1)c1ccccc1)CC(=S)CC(=O)C=P(c1ccccc1)(c1ccccc1)c1ccccc1", "unitString": "%", "reportedMeasurement": 88}
{"molecule": "CCC(=O)N1c2ccccc2CC1c1c[nH]c2ccccc12 (stereo not given)", "unitString": "%", "reportedMeasurement": 78}
{"molecule": "Nc1ccc(S(=O)(=O)Nc2nc3ccccc3nc2N2CCCCCC2)cc1", "unitString": "%", "reportedMeasurement": 95}
{"molecule": "CCN(CC)c1ccc(N=Nc2ccc(-c3nc4cccn(C)c-4n3)cc2)cc1", "unitString": "%", "reportedMeasurement": 9}
{"molecule": "CCCCCCCCCCCCCCCCNC(=S)N/C=C(/C#N)C(=O)OC", "unitString": "%", "reportedMeasurement": 99}
{"molecule": "O=C(O)C1CC2C3(Cl)C(Cl)=C(Cl)C(Cl)C2(CC1c1c2ccc(=O)c(O)c-2oc2c(O)c(O)ccc12)C3(Cl)Cl (stereo not given)", "unitString": "%", "reportedMeasurement": 96}
{"molecule": "O=C1OCc2cccc3cccc1c23", "unitString": "%", "reportedMeasurement": 69}
{"molecule": "Cn1c(N)c(NC(=O)CCl)c(=O)n(C)c1=O", "unitString": "%", "reportedMeasurement": 7}
{"molecule": "COc1ccc(C2C3=C(CCC(CN(C)C)C3=O)OC3=C2C(=O)C(CN(C)C)CC3)cc1 (stereo not given)", "unitString": "%", "reportedMeasurement": -17}

----------
# assayInfo: NCI Yeast Anticancer Drug Screen. Data for the cln2 rad14 strain (AID 165);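 also: 0% = growth equal to vehicle treated cultures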
# reportedConditions: S. cerevisiae cln2 rad14 strain, at 5.0 µM (retest, dose inferred, filed as 0.5), hits give high values
The panel holds about 79,000 compounds, 15% with a hit somewhere; the sample as a whole holds those more often.
measure: growth inhibition (%)

{"molecule": "COc1ccc(-n2c(=O)c3[nH]c(=S)[nH]c3n(-c3ccc(OC)cc3)c2=S)cc1", "unitString": "%", "reportedMeasurement": 3}
{"molecule": "O=C(O)/C(=C\\c1ccc(F)cc1)c1ccccc1", "unitString": "%", "reportedMeasurement": 29}
{"molecule": "Cc1ccc(NC(=O)c2cc3ccccc3c(N=Nc3cc(S(=O)(=O)O)ccc3O)c2O)c(C)c1", "unitString": "%", "reportedMeasurement": 29}
{"molecule": "O=[N+]([O-])/C(C(Cl)=C(Cl)Cl)=C(/Sc1ccccc1)N1CCOCC1", "unitString": "%", "reportedMeasurement": -7}
{"molecule": "O=[N+]([O-])c1ccc(N/N=C/COCCO)c([N+](=O)[O-])c1", "unitString": "%", "reportedMeasurement": 4}
{"molecule": "CCOC(=O)C(C)(c1c(C)[nH]c2ccccc12)c1c(C)[nH]c2ccccc12", "unitString": "%", "reportedMeasurement": 4}
{"molecule": "O=CNNC(=O)Nc1ccc(Cl)cc1", "unitString": "%", "reportedMeasurement": 32}
{"molecule": "COc1ccc(C2CC(CO)ON2c2ccccc2)cc1 (stereo not drawn)", "unitString": "%", "reportedMeasurement": -23}
{"molecule": "O=S1(=O)CC(Cl)(Cl)C1", "unitString": "%", "reportedMeasurement": -1}
{"molecule": "OC1C2COc3nc4ccccc4n3C(O2)C1O (stereo not drawn)", "unitString": "%", "reportedMeasurement": -60}
{"molecule": "CC1CCN(CCC(=O)c2cccc(O)c2)CC1", "unitString": "%", "reportedMeasurement": -2}
{"molecule": "Cc1ccc(-c2c(C#N)c(-c3ccccc3)n(NS(=O)(=O)c3ccc(C)cc3)c(=O)c2C#N)cc1", "unitString": "%", "reportedMeasurement": 52}
{"molecule": "O=C1CCCCCC1Cc1cc(O)c(CC2CCCCCC2=O)cc1O (stereo not drawn)", "unitString": "%", "reportedMeasurement": -6}
{"molecule": "NNC(=O)NN=C(c1ccccc1)c1ccccc1", "unitString": "%", "reportedMeasurement": 0}
{"molecule": "COc1cccc(CC2N(S(=O)(=O)c3ccc(C)cc3)CCC23C(=O)Nc2ccccc23)c1OC (stereo not drawn)", "unitString": "%", "reportedMeasurement": -3}
{"molecule": "COc1ccc(CC2C(=O)NC(C)C(=O)N(C)C3Cc4ccc(cc4)Oc4cc(ccc4O)CC(C(=O)NC(C)C(=O)NC(C)C(=O)N2C)N(C)C3=O)cc1 (stereo not drawn)", "unitString": "%", "reportedMeasurement": 46}
{"molecule": "CCCCCCCCCCCC(=O)N1CCCC1", "unitString": "%", "reportedMeasurement": -3}
{"molecule": "CC(=O)n1nc2c(c1CC(C)C)C(=O)C(Nc1ccccc1)=CC2=O", "unitString": "%", "reportedMeasurement": 6}
{"molecule": "O=NN(CCCl)C(=O)Oc1cc(Cl)c(Cl)cc1Cl", "unitString": "%", "reportedMeasurement": 37}
{"molecule": "NC(CCCNc1nc(O)cc(=O)[nH]1)C(=O)O (stereo not drawn)", "unitString": "%", "reportedMeasurement": -63}
{"molecule": "CN(C)c1nc(=NCc2ccccc2)ss1", "unitString": "%", "reportedMeasurement": 8}
{"molecule": "CCCCCCn1c(SCC)c2ccccc2c1-c1nc(F)nc(F)n1", "unitString": "%", "reportedMeasurement": 14}
{"molecule": "CC(=O)Nc1ccc2c(c1)C(=O)c1cccc(F)c1-2", "unitString": "%", "reportedMeasurement": -2}
